target: Human KRAS G12V (Homo sapiens, UniProt P01116, G12V); assay: KRAS-G12V/GTP binding assay (HTRF kit); conditions: 25° C., 1 h
Sequence (P01116 1-188 isoform P01116-2 G12V): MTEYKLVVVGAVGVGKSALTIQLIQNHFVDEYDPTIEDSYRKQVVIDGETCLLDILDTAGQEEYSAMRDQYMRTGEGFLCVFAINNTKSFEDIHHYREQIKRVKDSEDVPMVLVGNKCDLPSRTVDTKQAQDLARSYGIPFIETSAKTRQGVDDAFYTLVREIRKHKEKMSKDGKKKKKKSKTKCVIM
pIC50: −log10 of the molar value.
Listing: pIC50 of selected molecules

Some molecules with recorded pIC50:
{"RECORD SMILES": "C#Cc1c(F)ccc2cc(O)cc(-c3ncc4c(N5CCC[C@@](C)(O)C5)nc(OCC56CC(CN7CCN(CC8CCC9(CC8)CCN(C(=O)c8ccc(C)c(N%10CCC(=O)NC%10=O)c8)CC9)CC7)(C5)C6)nc4c3F)c12", "pIC50": "≥ 6.30"}
{"RECORD SMILES": "C#Cc1c(F)ccc2cc(O)cc(-c3ncc4c(N5CCC[C@@](C)(O)C5)nc(OCC5(CN6CCN(CC7CCC8(CC7)CCN(C(=O)c7ccc(C)c(N9CCC(=O)NC9=O)c7)CC8)CC6)CC5)nc4c3F)c12", "pIC50": "≥ 6.30"}
{"RECORD SMILES": "C#Cc1cccc2cc(O)cc(-c3ncc4c(N5CCC[C@@](C)(O)C5)nc(OCC5(CN6CCN(CC7CCC8(CC7)CCN(C(=O)c7ccc(Cl)c(N9CCC(=O)NC9=O)c7)CC8)CC6)CC5)nc4c3F)c12", "pIC50": "6.00 to 6.30"}
{"RECORD SMILES": "C#Cc1c(F)ccc2cc(O)cc(-c3ncc4c(N5CCC[C@@](C)(O)C5)nc(OCC5(CN6CCN(CC7CCC8(CC7)CCN(C(=O)c7ccc(OC)c(N9CCC(=O)NC9=O)c7)CC8)CC6)CC5)nc4c3F)c12", "pIC50": "≥ 6.30"}
{"RECORD SMILES": "Cc1ccc(C(=O)N2CCC3(CCC(CN4CCN(CC5(COc6nc(N7CCC[C@@](C)(O)C7)c7cnc(-c8cc(O)cc(Cl)c8C8CC8)c(F)c7n6)CC5)CC4)CC3)CC2)cc1N1CCC(=O)NC1=O", "pIC50": "6.00 to 6.30"}

Ask: So what does the record say about pIC50 for C#Cc1c(F)ccc2cc(O)cc(-c3ncc4c(N5CCC[C@@](C)(O)C5)nc(OCC5(CN6CCC7(CC6)CCN(C(=O)c6ccc(Cl)c(N8CCC(=O)NC8=O)c6)CC7)CC5)nc4c3F)c12 ?
Reply: ≥ 6.30

Ask: # get_value(readout='pIC50', item= C#Cc1c(F)ccc2cc(O)cc(-c3ncc4c(N5CCC[C@@](C)(O)C5)nc(OCC5(CN6CCN(CC7CCC8(CC7)CCN(C(=O)c7ccc(Cl)c(N9CCC(=O)NC9=O)c7)CC8)CC6)CC5)nc4c3F)c12 )
Reply: ≥ 6.30

Ask: Returns the measured pIC50 for the input molecule. Input: C#Cc1cccc2cc(O)cc(-c3ncc4c(N5CCC[C@@](C)(O)C5)nc(OCC5(CN6CCN(CC7CCC8(CC7)CCN(C(=O)c7ccc(OC)c(N9CCC(=O)NC9=O)c7)CC8)CC6)CC5)nc4c3F)c12
Reply: ≥ 6.30

Ask: Find the recorded pIC50 belonging to CCc1c(F)ccc2cc(O)cc(-c3ncc4c(N5CCC[C@@](C)(O)C5)nc(OCC5(CN6CCN(CC7CCC8(CC7)CCN(C(=O)c7ccc(Cl)c(N9CCC(=O)NC9=O)c7)CC8)CC6)CC5)nc4c3F)c12 and report it.
Reply: ≥ 6.30
